Target: PDE1A (Homo sapiens, UniProt P54750)
Construct: purchased Reaction Biology Corporation, Malvern, Pa
Sequence (P54750 whole entry): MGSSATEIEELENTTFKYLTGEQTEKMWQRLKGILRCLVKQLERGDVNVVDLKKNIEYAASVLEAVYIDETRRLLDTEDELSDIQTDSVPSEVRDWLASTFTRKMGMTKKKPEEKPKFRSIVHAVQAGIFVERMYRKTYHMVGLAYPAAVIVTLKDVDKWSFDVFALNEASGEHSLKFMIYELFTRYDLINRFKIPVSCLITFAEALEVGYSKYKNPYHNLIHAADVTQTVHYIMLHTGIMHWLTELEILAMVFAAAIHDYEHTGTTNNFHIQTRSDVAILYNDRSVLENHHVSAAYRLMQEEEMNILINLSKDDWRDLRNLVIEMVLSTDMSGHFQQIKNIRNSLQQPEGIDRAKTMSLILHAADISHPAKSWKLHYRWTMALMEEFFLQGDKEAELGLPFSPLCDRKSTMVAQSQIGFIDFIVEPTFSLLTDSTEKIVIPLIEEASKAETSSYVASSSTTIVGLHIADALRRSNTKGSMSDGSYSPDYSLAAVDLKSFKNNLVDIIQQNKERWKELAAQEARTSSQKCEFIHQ
Experiment: Phosphodiesterase enzyme screening assay, PDE1A
Assay type: biochemical
Conditions: ratio of IC50 values, PDE1A versus PDE9A2; value greater than 1 indicates greater selectivity for PDE9A2
assayReadout: PDE1A selectivity (versus PDE9A2)

So for Cc1ccccc1-c1ncc2c(=O)[nH]c(C3CN(Cc4nc5ccccc5[nH]4)CC3C)nn12 (single isomer, unassigned; (+)) , the logged PDE1A selectivity (versus PDE9A2) turned out to be 1740

So for CC1CN(Cc2nc3ccccn3n2)CC1c1nn2c(-c3cccc(F)c3)ncc2c(=O)[nH]1 (single isomer, unassigned; (+)) , the logged PDE1A selectivity (versus PDE9A2) turned out to be 3

So for Cc1cc(F)c(F)cc1-c1ncc2c(=O)[nH]c(C3CN(Cc4ncccn4)CC3C)nn12 (single isomer, unassigned; (+)) , the logged PDE1A selectivity (versus PDE9A2) turned out to be 44

So for Cc1ccccc1-c1ncc2c(=O)[nH]c(C3CN(Cc4cccnc4)CC3C)nn12 (single isomer, unassigned; (+)) , the logged PDE1A selectivity (versus PDE9A2) turned out to be 103

So for CC1CN(Cc2ncccn2)CC1c1nn2c(C3CCCC3)ncc2c(=O)[nH]1 (single isomer, unassigned; (+)) , the logged PDE1A selectivity (versus PDE9A2) turned out to be 60

So for Cc1ccccc1-c1ncc2c(=O)[nH]c(C3CN(Cc4ccccn4)CC3C)nn12 (single isomer, unassigned; (+)) , the logged PDE1A selectivity (versus PDE9A2) turned out to be 73

So for Cc1ccccc1-c1ncc2c(=O)[nH]c(C3CN(Cc4nc5ccccn5n4)CC3C)nn12 (single isomer, unassigned; (+)) , the logged PDE1A selectivity (versus PDE9A2) turned out to be 490

So for CC1CN(Cc2cccnc2)CC1c1nn2c(-c3cccc(F)c3)ncc2c(=O)[nH]1 (single isomer, unassigned; (+)) , the logged PDE1A selectivity (versus PDE9A2) turned out to be 15

So for CC1CN(Cc2ccc(F)cc2)CC1c1nn2c(-c3ccccc3)ncc2c(=O)[nH]1 (single isomer, unassigned; (+)) , the logged PDE1A selectivity (versus PDE9A2) turned out to be 3

So for CC1CN(Cc2nc3ccccn3n2)CC1c1nn2c(C3CCCC3)ncc2c(=O)[nH]1 (single isomer, unassigned; (+)) , the logged PDE1A selectivity (versus PDE9A2) turned out to be 98

So for CCC(CC)c1ncc2c(=O)[nH]c(C3CN(Cc4ccc(F)cc4)CC3C)nn12 (single isomer, unassigned; (+)) , the logged PDE1A selectivity (versus PDE9A2) turned out to be 70

So for Cc1cc(F)c(F)cc1-c1ncc2c(=O)[nH]c(C3CN(Cc4nc5ccccn5n4)CC3C)nn12 (single isomer, unassigned; (+)) , the logged PDE1A selectivity (versus PDE9A2) turned out to be 1000

So for CC1CN(Cc2ccccc2)CC1c1nn2c(-c3cccc(F)c3)ncc2c(=O)[nH]1 (single isomer, unassigned; (+)) , the logged PDE1A selectivity (versus PDE9A2) turned out to be 70

So for CCC(CC)c1ncc2c(=O)[nH]c(C3CN(Cc4ccccc4)CC3C)nn12 (single isomer, unassigned; (+)) , the logged PDE1A selectivity (versus PDE9A2) turned out to be 175

So for Cc1ccccc1-c1ncc2c(=O)[nH]c(C3CN(Cc4cnccn4)CC3C)nn12 (single isomer, unassigned; (+)) , the logged PDE1A selectivity (versus PDE9A2) turned out to be 387

So for CC1CN(Cc2ccccc2)CC1c1nn2c(-c3ccccc3)ncc2c(=O)[nH]1 (single isomer, unassigned; (+)) , the logged PDE1A selectivity (versus PDE9A2) turned out to be 4

So for CC1CN(Cc2nc3ccccn3n2)CC1c1nn2c(-c3ccc(F)cc3)ncc2c(=O)[nH]1 (single isomer, unassigned; (+)) , the logged PDE1A selectivity (versus PDE9A2) turned out to be 87

So for CC1CN(Cc2cn3ccccc3n2)CC1c1nn2c(C3CCCC3)ncc2c(=O)[nH]1 (single isomer, unassigned; (+)) , the logged PDE1A selectivity (versus PDE9A2) turned out to be 57

So for Cc1ccccc1-c1ncc2c(=O)[nH]c(C3CN(Cc4ccc(Cl)cc4)CC3C)nn12 (single isomer, unassigned; (+)) , the logged PDE1A selectivity (versus PDE9A2) turned out to be 55

So for Cc1ccncc1-c1ncc2c(=O)[nH]c(C3CN(Cc4ncccn4)CC3C)nn12 (single isomer, unassigned; (+)) , the logged PDE1A selectivity (versus PDE9A2) turned out to be 85

So for Cc1ccncc1-c1ncc2c(=O)[nH]c(C3CN(Cc4nc5ccccn5n4)CC3C)nn12 (single isomer, unassigned; (+)) , the logged PDE1A selectivity (versus PDE9A2) turned out to be 56

So for Cc1ccncc1-c1ncc2c(=O)[nH]c(C3CN(Cc4ccccc4)CC3C)nn12 (single isomer, unassigned; (+)) , the logged PDE1A selectivity (versus PDE9A2) turned out to be 148

So for Cc1cc(F)c(F)cc1-c1ncc2c(=O)[nH]c(C3CN(Cc4ccccc4)CC3C)nn12 (single isomer, unassigned; (+)) , the logged PDE1A selectivity (versus PDE9A2) turned out to be 174

So for CC1CN(Cc2ccccc2)CC1c1nn2c(-c3ccc(F)cc3)ncc2c(=O)[nH]1 (single isomer, unassigned; (+)) , the logged PDE1A selectivity (versus PDE9A2) turned out to be 220

So for CC1CN(Cc2cn3ccccc3n2)CC1c1nn2c(-c3ccc(F)cc3)ncc2c(=O)[nH]1 (single isomer, unassigned; (+)) , the logged PDE1A selectivity (versus PDE9A2) turned out to be 120

So for CC1CN(Cc2ccc(F)cc2)CC1c1nn2c(-c3cccc(F)c3)ncc2c(=O)[nH]1 (single isomer, unassigned; (+)) , the logged PDE1A selectivity (versus PDE9A2) turned out to be 42

So for Cc1ccccc1-c1ncc2c(=O)[nH]c(C3CN(Cc4cn5ccccc5n4)CC3C)nn12 (single isomer, unassigned; (+)) , the logged PDE1A selectivity (versus PDE9A2) turned out to be 326

So for Cc1cc(F)c(F)cc1-c1ncc2c(=O)[nH]c(C3CN(Cc4cn5ccccc5n4)CC3C)nn12 (single isomer, unassigned; (+)) , the logged PDE1A selectivity (versus PDE9A2) turned out to be 2510
